# Tested on: influenza A virus (A/WSN/33 NanoLuc reporter virus) in A549 cells
# Assay details: microbe, parasite or virus in culture
# Assay type: cell-based
# Condition description: A549, 24 h, read-out: IC50 values of viral replication inhibition in a cell-based Luciferase Reporter Assay (LRA)
# key: entry, value: IC50
Your answer should be a plain number; it is taken to be in nM.

Structure smiles | Observed measurement
CCOc1nc(=O)c(O)c2n1[C@@H](C(c1ccccc1)c1ccccc1)CN(C(C)C)C2=O | 69
COc1nc(=O)c(O)c2n1[C@@H](C1c3ccccc3CCc3ccccc31)CN(C)C2=O | 6
CC(C)N1C[C@H](C(c2ccccc2)c2ccccc2)n2c(NCC(F)(F)F)nc(=O)c(O)c2C1=O | 273
Cc1nc(=O)c(O)c2n1[C@@H](C(c1ccccc1)c1ccccc1)CN(C(C)C)C2=O | 119
COc1nc(=O)c(O)c2n1[C@@H]([C@H](c1ccccc1)c1ccc(Cl)cc1)CN(C(C)C)C2=O | 40

Task: Given the compound CC(C)N1C[C@H](C(c2ccccc2)c2ccccc2)n2c(S(C)(=O)=O)nc(=O)c(O)c2C1=O , what is its reported IC50?
Result: 110

Task: Given the compound CC(C)N1C[C@H](C(c2ccccc2)c2ccccc2)n2c(-n3cnnc3)nc(=O)c(O)c2C1=O , what is its reported IC50?
Result: 130

Task: Given the compound CNC(=N)Nc1nc(=O)c(O)c2n1[C@@H](C(c1ccccc1)c1ccccc1)CN(C(C)C)C2=O , what is its reported IC50?
Result: 1070

Task: Given the compound CC(C)N1C[C@H](C2c3ccccc3CCc3ccccc32)n2c(NS(C)(=O)=O)nc(=O)c(O)c2C1=O , what is its reported IC50?
Result: 144

Task: Given the compound CC(C)N1C[C@H](C(c2ccccc2)c2ccccc2)n2cnc(=O)c(O)c2C1=O , what is its reported IC50?
Result: 232

Ref: patent US9988390B2
